# Test System: recombinant human Mcl-1 (residues 171-327) / Bim interaction (Homo sapiens (Human), UniProt Q07820)
# Sequence (Q07820 171-327): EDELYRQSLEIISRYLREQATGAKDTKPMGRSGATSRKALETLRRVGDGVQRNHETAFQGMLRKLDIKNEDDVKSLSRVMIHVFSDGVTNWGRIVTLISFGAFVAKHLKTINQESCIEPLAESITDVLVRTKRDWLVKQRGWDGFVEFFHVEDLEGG
# Assay Protocol: biochemical
# Type: binding
# Conditions: TR-FRET, Mcl-1(171-327) / biotin-Bim (51-76); read-out: Mcl-1 HTRF IC50
Observable: log10 IC50 (log10 of the value in nM)
Each number you see is log10 of IC50, and the unit inside the log is nM.

Before answering, review these 6 worked examples.
| Compound | log10 IC50 |
| --- | --- |
| CO[C@@]1([C@@H](C)O)/C=C/C[C@H](C)[C@@H](C)S(=O)(=O)NC(=O)c2ccc3c(c2)N(C[C@@H]2CC[C@H]21)C[C@@]1(CCCc2cc(Cl)ccc21)CO3 (stereo in doubt) | -0.36 |
| CO[C@@]1(CCO)/C=C/C[C@H](C)[C@@H](C)S(=O)(=O)NC(=O)c2ccc3c(c2)N(C[C@@H]2CC[C@H]21)C[C@@]1(CCCc2cc(Cl)ccc21)CO3 | -0.21 |
| C[C@@H]1[C@@H](C)CCC[C@@]2(COC(=O)O2)[C@@H]2CC[C@H]2CN2C[C@@]3(CCCc4cc(Cl)ccc43)COc3ccc(cc32)C(=O)NS1(=O)=O | 0.61 |
| Cc1ncoc1C[C@]1(O)/C=C/C[C@H](C)[C@@H](C)S(=O)(=O)NC(=O)c2ccc3c(c2)N(C[C@@H]2CC[C@H]21)C[C@@]1(CCCc2cc(Cl)ccc21)CO3 | -0.76 |
| C[C@@H]1[C@@H](C)CCC[C@]2(COC(=O)O2)[C@@H]2CC[C@H]2CN2C[C@@]3(CCCc4cc(Cl)ccc43)COc3ccc(cc32)C(=O)NS1(=O)=O (single isomer, unassigned) | 0.10 |
| CO[C@@]1(C2SCCCS2)/C=C/C[C@H](C)[C@@H](C)S(=O)(=O)NC(=O)c2ccc3c(c2)N(C[C@@H]2CC[C@H]21)C[C@@]1(CCCc2cc(Cl)ccc21)CO3 | 0.09 |

Each of the following entries comes with a recorded value; kindly state log10 IC50 for each.
1. CNC(=O)C[C@]1(O)CCC[C@H](C)[C@@H](C)S(=O)(=O)NC(=O)c2ccc3c(c2)N(C[C@@H]2CC[C@H]21)C[C@@]1(CCCc2cc(Cl)ccc21)CO3
2. C[C@@H]1[C@@H](C)CCC[C@](C)(CO)[C@@H]2CC[C@H]2CN2C[C@@]3(CCCc4cc(Cl)ccc43)COc3ccc(cc32)C(=O)NS1(=O)=O
3. C[C@@H]1[C@@H](C)C/C=C/[C@](O)(C#CCCCN2CCOCC2)[C@@H]2CC[C@H]2CN2C[C@@]3(CCCc4cc(Cl)ccc43)COc3ccc(cc32)C(=O)NS1(=O)=O

Result:
-0.64
0.12
-1.11

Each of the following entries comes with a recorded value; kindly state log10 IC50 for each.
1. CO[C@]1(C#CCN2CCOCC2)/C=C/C[C@H](C)[C@@H](C)S(=O)(=O)NC(=O)c2ccc3c(c2)N(C[C@@H]2CC[C@H]21)C[C@@]1(CCCc2cc(Cl)ccc21)CO3 [Example 100448]
2. C#C[C@]1(OC)/C=C/C[C@H](C)[C@@H](C)S(=O)(=O)NC(=O)c2ccc3c(c2)N(C[C@@H]2CC[C@H]21)C[C@@]1(CCCc2cc(Cl)ccc21)CO3

Result:
[-0.43, -0.54]

---

# Test System: recombinant human Mcl-1 (residues 171-327) / Bim interaction (Homo sapiens (Human))
# Assay Protocol: biochemical
# Type: binding
# Conditions: TR-FRET, Mcl-1(171-327) / biotin-Bim (51-76); read-out: Mcl-1 HTRF IC50
Kindly supply the reported pIC50 values for the records listed here.
One number for each entry, as −log10 of the molar value.

Before answering, review these 10 worked examples.
| Compound | pIC50 |
| --- | --- |
| COCCOC[C@]1(O)CCC[C@H](C)[C@@H](C)S(=O)(=O)NC(=O)c2ccc3c(c2)N(C[C@@H]2CC[C@H]21)C[C@@]1(CCCc2cc(Cl)ccc21)CO3 | 9.72 |
| COC(OC)c1cncc([C@@]2(O)/C=C/C[C@H](C)[C@@H](C)S(=O)(=O)NC(=O)c3ccc4c(c3)N(C[C@@H]3CC[C@H]32)C[C@@]2(CCCc3cc(Cl)ccc32)CO4)c1 (single isomer, unassigned) | 9.37 |
| Cc1nccnc1C[C@@]1(O)/C=C/C[C@H](C)[C@@H](C)S(=O)(=O)NC(=O)c2ccc3c(c2)N(C[C@@H]2CC[C@H]21)C[C@@]1(CCCc2cc(Cl)ccc21)CO3 | 9.41 |
| CCN(CC)C(=O)C[C@]1(O)/C=C/C[C@H](C)[C@@H](C)S(=O)(=O)NC(=O)c2ccc3c(c2)N(C[C@@H]2CC[C@H]21)C[C@@]1(CCCc2cc(Cl)ccc21)CO3 | 9.75 |
| C[C@@H]1[C@@H](C)CCC[C@@]2(C[C@H]2C(=O)N2CCN3CCOC[C@H]3C2)[C@@H]2CC[C@H]2CN2C[C@@]3(CCCc4cc(Cl)ccc43)COc3ccc(cc32)C(=O)NS1(=O)=O [Example 100304] | 9.51 |
| Cc1cc(C[C@@]2(O)/C=C/C[C@H](C)[C@@H](C)S(=O)(=O)NC(=O)c3ccc4c(c3)N(C[C@@H]3CC[C@H]32)C[C@@]2(CCCc3cc(Cl)ccc32)CO4)no1 | 9.56 |
| C[C@@H]1[C@@H](C)C/C=C/[C@@](O)(C#CCO)[C@@H]2CC[C@H]2CN2C[C@@]3(CCCc4cc(Cl)ccc43)COc3ccc(cc32)C(=O)NS1(=O)=O [Example 100395] | 10.25 |
| CO[C@@]1(CC2=NCCO2)/C=C/C[C@H](C)[C@@H](C)S(=O)(=O)NC(=O)c2ccc3c(c2)N(C[C@@H]2CC[C@H]21)C[C@@]1(CCCc2cc(Cl)ccc21)CO3 | 10.31 |
| COC[C@@H](C)N(C)C(=O)C[C@]1(OC)/C=C/C[C@H](C)[C@@H](C)S(=O)(=O)NC(=O)c2ccc3c(c2)N(C[C@@H]2CC[C@H]21)C[C@@]1(CCCc2cc(Cl)ccc21)CO3 | 9.95 |
| CCOC(=O)COC[C@]1(OCC(=O)OCC)CCCC[C@@H](CC)S(=O)(=O)NC(=O)c2ccc3c(c2)N(C[C@@H]2CC[C@H]21)C[C@@]1(CCCc2cc(Cl)ccc21)CO3 | 8.31 |

Each of the following entries comes with a recorded value; kindly state pIC50 for each.
1. C[C@@H]1[C@@H](C)C/C=C/[C@@](O)(C(F)F)[C@@H]2CC[C@H]2CN2C[C@@]3(CCCc4cc(Cl)ccc43)COc3ccc(cc32)C(=O)NS1(=O)=O [Example 100070]
2. CO[C@@]1(Cc2ncccc2C)/C=C/C[C@H](C)[C@@H](C)S(=O)(=O)NC(=O)c2ccc3c(c2)N(C[C@@H]2CC[C@H]21)C[C@@]1(CCCc2cc(Cl)ccc21)CO3
3. CC(C)C[C@@]1(O)/C=C/C[C@H](C)[C@@H](C)S(=O)(=O)NC(=O)c2ccc3c(c2)N(C[C@@H]2CC[C@H]21)C[C@@]1(CCCc2cc(Cl)ccc21)CO3

Result:
8.31
9.64
8.13

Q: Please give the measured pIC50 for this compound: C[C@@H]1[C@@H](C)CCC[C@@](O)(C#CCCN2CCOCC2)[C@@H]2CC[C@H]2CN2C[C@@]3(CCCc4cc(Cl)ccc43)COc3ccc(cc32)C(=O)NS1(=O)=O [Example 100372]
Result: 9.78

---

# Test System: recombinant human Mcl-1 (residues 171-327) / Bim interaction (Homo sapiens (Human), UniProt Q07820)
# Assay Protocol: biochemical
# Type: binding
# Conditions: 0.1 nM Mcl-1(171-327), 0.05 nM biotin-Bim (51-76); read-out: Mcl-1 HTRF IC50
Observable: pIC50
Give bare numbers, as −log10 of the molar value.

| Smiles Notation | pIC50 |
| --- | --- |
| CO[C@]1(CN2C[C@@H](C)N(C(C)C)[C@@H](C)C2)/C=C/C[C@H](C)[C@@H](C)S(=O)(=O)NC(=O)c2ccc3c(c2)N(C[C@@H]2CC[C@H]21)C[C@@]1(CCCc2cc(Cl)ccc21)CO3 | 10.06 |
| CO[C@]1(CN2CCOCC2)/C=C/C[C@H](C)[C@@H](C)S(=O)(=O)NC(=O)c2ccc3c(c2)N(C[C@@H]2CC[C@H]21)C[C@@]1(CCCc2cc(Cl)ccc21)CO3 | 9.47 |
| CCN1CCN(C[C@@]2(OC)/C=C/C[C@H](C)[C@@H](C)S(=O)(=O)NC(=O)c3ccc4c(c3)N(C[C@@H]3CC[C@H]32)C[C@@]2(CCCc3cc(Cl)ccc32)CO4)CC1 | 9.86 |

Q: Please give the measured pIC50 for this compound: CO[C@@]1(CN2CCc3ncncc3C2)/C=C/C[C@H](C)[C@@H](C)S(=O)(=O)NC(=O)c2ccc3c(c2)N(C[C@@H]2CC[C@H]21)C[C@@]1(CCCc2cc(Cl)ccc21)CO3
Result: 9.60
